experiment: Particle size and polydispersity of LNP containing pro-drug (dynamic light scattering); assay type: physicochemical; conditions: LNP formulations containing pro-drugs (10 mol %, FIG. 6A)
Parameter: PdI. Scope: all listed entries.

molecule | PdI
CCCCC/C=C\C/C=C\CCCCCCCC(=O)O[C@@H](C/C=C\CCCCCCCC(=O)OCC(=O)[C@@]1(O)[C@H](C)C[C@H]2[C@@H]3CCC4=CC(=O)C=C[C@]4(C)[C@@]3(F)[C@@H](O)C[C@@]21C)CCCCCC | 0.07
CCCCC/C=C\C/C=C\CCCCCCCC(=O)O[C@@H](C/C=C\CCCCCCCCOC(=O)CCC(=O)OCC(=O)[C@@]1(O)[C@H](C)C[C@H]2[C@@H]3CCC4=CC(=O)C=C[C@]4(C)[C@@]3(F)[C@@H](O)C[C@@]21C)CCCCCC | 0.03
CCCCC/C=C\C/C=C\C/C=C\C/C=C\CCCC(=O)O[C@@H](C/C=C\CCCCCCCCOC(=O)CCC(=O)OCC(=O)[C@@]1(O)[C@H](C)C[C@H]2[C@@H]3CCC4=CC(=O)C=C[C@]4(C)[C@@]3(F)[C@@H](O)C[C@@]21C)CCCCCC | 0.04
CCCCC/C=C\C/C=C\CCCCCCCC(=O)OC(CCCCCCCC)C(CCCCCCCC(=O)OCC(=O)[C@@]1(O)[C@H](C)C[C@H]2[C@@H]3CCC4=CC(=O)C=C[C@]4(C)[C@@]3(F)[C@@H](O)C[C@@]21C)OC(=O)CCCCCCC/C=C\C/C=C\CCCCC (some centres unmarked) | 0.08
CCCCCCCCC(OC(=O)CCCCC)C(CCCCCCCC(=O)OCC(=O)[C@@]1(O)[C@H](C)C[C@H]2[C@@H]3CCC4=CC(=O)C=C[C@]4(C)[C@@]3(F)[C@@H](O)C[C@@]21C)OC(=O)CCCCC (some centres unmarked) | 0.06
CCCCCC[C@H](C/C=C\CCCCCCCCOC(=O)CCC(=O)OCC(=O)[C@@]1(O)[C@H](C)C[C@H]2[C@@H]3CCC4=CC(=O)C=C[C@]4(C)[C@@]3(F)[C@@H](O)C[C@@]21C)OC(=O)CCCCC | 0.08
CC/C=C\C/C=C\C/C=C\CCCCCCCC(=O)O[C@@H](C/C=C\CCCCCCCCOC(=O)CCC(=O)OCC(=O)[C@@]1(O)[C@H](C)C[C@H]2[C@@H]3CCC4=CC(=O)C=C[C@]4(C)[C@@]3(F)[C@@H](O)C[C@@]21C)CCCCCC | 0.11
CCCCCC[C@H](C/C=C\CCCCCCCCOC(=O)CCC(=O)OCC(=O)[C@@]1(O)[C@H](C)C[C@H]2[C@@H]3CCC4=CC(=O)C=C[C@]4(C)[C@@]3(F)[C@@H](O)C[C@@]21C)OC(C)=O | 0.06

====

test: Particle size and polydispersity of LNP containing pro-drug (dynamic light scattering); type: physicochemical; settings: LNP; pro-drug concentration 20 %

molecule | Size (nm)
CCCCC/C=C\C/C=C\CCCCCCCC(=O)OC(CCCCCCCC)C(CCCCCCCC(=O)OCC(=O)[C@@]1(O)[C@H](C)C[C@H]2[C@@H]3CCC4=CC(=O)C=C[C@]4(C)[C@@]3(F)[C@@H](O)C[C@@]21C)OC(=O)CCCCCCC/C=C\C/C=C\CCCCC (stereo partly drawn) [INT-D086] | 35
CCCCCC[C@H](C/C=C\CCCCCCCCOC(=O)CC/C(C)=C/Cc1c(O)c2c(c(C)c1OC)COC2=O)OC(=O)CCCCC [INT-D062] | 39
CCCCC/C=C\C/C=C\CCCCCCCC(=O)O[C@@H](C/C=C\CCCCCCCCOC(=O)c1ccccc1OC(C)=O)CCCCCC [INT-D061] | 39

====

Parameter: % Entrapment. Scope: all listed entries.
assay: Encapsulation efficiency / incorporation of pro-drug in LNP; format: physicochemical; conditions: LNP formulations containing pro-drugs (10 mol %, FIG. 6A)

compound | % Entrapment / %
CC/C=C\C/C=C\C/C=C\CCCCCCCC(=O)O[C@@H](C/C=C\CCCCCCCCOC(=O)CCC(=O)OCC(=O)[C@@]1(O)[C@H](C)C[C@H]2[C@@H]3CCC4=CC(=O)C=C[C@]4(C)[C@@]3(F)[C@@H](O)C[C@@]21C)CCCCCC [INT-D049] | 100
CCCCC/C=C\C/C=C\C/C=C\C/C=C\CCCC(=O)O[C@@H](C/C=C\CCCCCCCCOC(=O)CCC(=O)OCC(=O)[C@@]1(O)[C@H](C)C[C@H]2[C@@H]3CCC4=CC(=O)C=C[C@]4(C)[C@@]3(F)[C@@H](O)C[C@@]21C)CCCCCC [INT-D051] | 100
CCCCC/C=C\C/C=C\CCCCCCCC(=O)OC(CCCCCCCC)C(CCCCCCCC(=O)OCC(=O)[C@@]1(O)[C@H](C)C[C@H]2[C@@H]3CCC4=CC(=O)C=C[C@]4(C)[C@@]3(F)[C@@H](O)C[C@@]21C)OC(=O)CCCCCCC/C=C\C/C=C\CCCCC (stereo partly drawn) [INT-D086] | 92

====

test: Particle size and polydispersity of LNP containing pro-drug (dynamic light scattering); format: physicochemical; conditions: LNP; pro-drug concentration 98 %
Parameter: Size (nm). Scope: all listed entries.
assay.readout: Size (nm)

entry.smiles | assay.readout | assay.value
CCCCCC[C@H](C/C=C\CCCCCCCCOC(=O)CCC(=O)OCC(=O)[C@@]1(O)[C@H](C)C[C@H]2[C@@H]3CCC4=CC(=O)C=C[C@]4(C)[C@@]3(F)[C@@H](O)C[C@@]21C)OC(=O)CCCCC | Size (nm) | 52
CCCCCCCCCCCCCCCCCC(=O)O[C@@H](C/C=C\CCCCCCCCOC(=O)CCC(=O)OCC(=O)[C@@]1(O)[C@H](C)C[C@H]2[C@@H]3CCC4=CC(=O)C=C[C@]4(C)[C@@]3(F)[C@@H](O)C[C@@]21C)CCCCCC | Size (nm) | 61
CCCCC/C=C\C/C=C\C/C=C\C/C=C\CCCC(=O)O[C@@H](C/C=C\CCCCCCCCOC(=O)CCC(=O)OCC(=O)[C@@]1(O)[C@H](C)C[C@H]2[C@@H]3CCC4=CC(=O)C=C[C@]4(C)[C@@]3(F)[C@@H](O)C[C@@]21C)CCCCCC | Size (nm) | 56
CC/C=C\C/C=C\C/C=C\CCCCCCCC(=O)O[C@@H](C/C=C\CCCCCCCCOC(=O)CCC(=O)OCC(=O)[C@@]1(O)[C@H](C)C[C@H]2[C@@H]3CCC4=CC(=O)C=C[C@]4(C)[C@@]3(F)[C@@H](O)C[C@@]21C)CCCCCC | Size (nm) | 69

====

test: Encapsulation efficiency / incorporation of pro-drug in LNP; assay type: physicochemical; conditions: LNP containing 10 mol % conjugate; primary PC-lipid DMPC
Parameter: Encapsulation Efficiency (%). Scope: all listed entries.
assay.readout: Encapsulation Efficiency (%)

compound | u | assay.value
CCCCC/C=C\C/C=C\C/C=C\C/C=C\CCCC(=O)O[C@@H](C/C=C\CCCCCCCCOC(=O)CCC(=O)OCC(=O)[C@@]1(O)[C@H](C)C[C@H]2[C@@H]3CCC4=CC(=O)C=C[C@]4(C)[C@@]3(F)[C@@H](O)C[C@@]21C)CCCCCC [INT-D051] | % | 84
CCCCCCCC/C=C\CCCCCCCC(=O)O[C@@H](C/C=C\CCCCCCCCOC(=O)CCC(=O)OCC(=O)[C@@]1(O)[C@H](C)C[C@H]2[C@@H]3CCC4=CC(=O)C=C[C@]4(C)[C@@]3(F)[C@@H](O)C[C@@]21C)CCCCCC [INT-D035] | % | 100

====

test: Particle size and polydispersity of LNP containing pro-drug (dynamic light scattering); format: physicochemical; conditions: LNP; pro-drug concentration 60 %
In plain terms, low PdI, meaning strictly below 0.1, gives true (1), and everything else gives false (0).

molecule | assigned.label
CCCCCC[C@H](C/C=C\CCCCCCCCOC(=O)CCC(=O)OCC(=O)[C@@]1(O)[C@H](C)C[C@H]2[C@@H]3CCC4=CC(=O)C=C[C@]4(C)[C@@]3(F)[C@@H](O)C[C@@]21C)OC(=O)CCCCC | true (1)
CCCCCC[C@H](C/C=C\CCCCCCCCOC(=O)c1ccccc1OC(C)=O)OC(=O)CCCCC | false (0)
CCCCC/C=C\C/C=C\CCCCCCCC(=O)OC(CCCCCCCC)C(CCCCCCCC(=O)OCC(=O)[C@@]1(O)[C@H](C)C[C@H]2[C@@H]3CCC4=CC(=O)C=C[C@]4(C)[C@@]3(F)[C@@H](O)C[C@@]21C)OC(=O)CCCCCCC/C=C\C/C=C\CCCCC (some centres unmarked) | true (1)
CCCCCCCCC(OC(=O)CCCCC)C(CCCCCCCC(=O)OCC(=O)[C@@]1(O)[C@H](C)C[C@H]2[C@@H]3CCC4=CC(=O)C=C[C@]4(C)[C@@]3(F)[C@@H](O)C[C@@]21C)OC(=O)CCCCC (some centres unmarked) | true (1)
CCCCC/C=C\C/C=C\CCCCCCCC(=O)O[C@@H](C/C=C\CCCCCCCCOC(=O)CC/C(C)=C/Cc1c(O)c2c(c(C)c1OC)COC2=O)CCCCCC | false (0)
CC/C=C\C/C=C\C/C=C\CCCCCCCC(=O)O[C@@H](C/C=C\CCCCCCCCOC(=O)CCC(=O)OCC(=O)[C@@]1(O)[C@H](C)C[C@H]2[C@@H]3CCC4=CC(=O)C=C[C@]4(C)[C@@]3(F)[C@@H](O)C[C@@]21C)CCCCCC | true (1)
CCCCC/C=C\C/C=C\CCCCCCCC(=O)O[C@@H](C/C=C\CCCCCCCCOC(=O)c1ccccc1OC(C)=O)CCCCCC | false (0)
CCCCCC[C@H](C/C=C\CCCCCCCCOC(=O)CC/C(C)=C/Cc1c(O)c2c(c(C)c1OC)COC2=O)OC(=O)CCCCC | false (0)
